Experiment description: Pharmacokinetics of sulfasalazine in rat, oral administration
Assay type: in vivo, male Wistar (Hannover) rats
Condition info: male, Wistar (Hannover), whole blood, 60 mg/kg
Experimental readout: Cmax (nM)
Respond with the bare value in nM.

Record O=C(O)c1cc(/N=N/c2ccc(S(=O)(=O)Nc3ccccn3)cc2)ccc1O [sulfasalazine] , field Cmax: 700

---

Experiment description: Pharmacokinetics of sulfasalazine in rat, oral administration
Format: in vivo, male Wistar (Hannover) rats
Condition info: male, Wistar (Hannover), whole blood, 60 mg/kg, p.o., read-out: AUC0.1, 5 h obs
Experimental readout: AUC (µM·h)
Respond with the bare value in µM·h.

Record O=C(O)c1cc(/N=N/c2ccc(S(=O)(=O)Nc3ccccn3)cc2)ccc1O [sulfasalazine] , field AUC: 0.81

---

Experiment description: Transport across Caco 2 cell monolayer
Format: in vitro ADME
Condition info: human, 50 μg/mL, direction ab (apical to basal), 180 min incubation
Experimental readout: Papp A→B at 180 min, 50 μg/mL (×10⁻⁶ cm/s)
Respond with the bare value in ×10⁻⁶ cm/s.

Record O=C(O)c1cc(/N=N/c2ccc(S(=O)(=O)Nc3ccccn3)cc2)ccc1O , field Papp A→B at 180 min, 50 μg/mL: 1.39

---

Experiment description: Solubility in water or FaSSIF-V2 medium (Example 8, HPLC)
Condition info: water, pH 5.9, water, thermodynamic from solid
Experimental readout: solubility at 24 h (µg/mL)
Respond with the bare value in µg/mL.

Record O=C(O)c1cc(/N=N/c2ccc(S(=O)(=O)Nc3ccccn3)cc2)ccc1O , field solubility at 24 h: 60

---

Experiment description: Transport across Caco 2 cell monolayer
Format: in vitro ADME
Condition info: human, 200 μg/mL, direction ab (apical to basal), 180 min incubation
Experimental readout: Papp A→B at 180 min, 200 μg/mL

Record O=C(O)c1cc(/N=N/c2ccc(S(=O)(=O)Nc3ccccn3)cc2)ccc1O , field Papp A→B at 180 min, 200 μg/mL: 1.16 ×10⁻⁶ cm/s

---

Experiment description: Pharmacokinetics of sulfasalazine in rat, oral administration
Assay type: in vivo, male Wistar (Hannover) rats
Condition info: male, Wistar (Hannover), whole blood, 60 mg/kg, p.o., read-out: AUCall
Experimental readout: AUC (µM·h)
Respond with the bare value in µM·h.

Record O=C(O)c1cc(/N=N/c2ccc(S(=O)(=O)Nc3ccccn3)cc2)ccc1O , field AUC: 2.81
